The reported numbers originate from patent US20260191974A1.

// SELECTION/INPUT lookup, one value per entry
TGT: T1, biotinylated B7-H3 (B7-H3b), immune checkpoint protein
T1 construct: also called biotin immobilized B7-H3; streptavidin immobilized B7-H3
T1 sequence (Q5ZPR3 whole entry, species assumed, looked up): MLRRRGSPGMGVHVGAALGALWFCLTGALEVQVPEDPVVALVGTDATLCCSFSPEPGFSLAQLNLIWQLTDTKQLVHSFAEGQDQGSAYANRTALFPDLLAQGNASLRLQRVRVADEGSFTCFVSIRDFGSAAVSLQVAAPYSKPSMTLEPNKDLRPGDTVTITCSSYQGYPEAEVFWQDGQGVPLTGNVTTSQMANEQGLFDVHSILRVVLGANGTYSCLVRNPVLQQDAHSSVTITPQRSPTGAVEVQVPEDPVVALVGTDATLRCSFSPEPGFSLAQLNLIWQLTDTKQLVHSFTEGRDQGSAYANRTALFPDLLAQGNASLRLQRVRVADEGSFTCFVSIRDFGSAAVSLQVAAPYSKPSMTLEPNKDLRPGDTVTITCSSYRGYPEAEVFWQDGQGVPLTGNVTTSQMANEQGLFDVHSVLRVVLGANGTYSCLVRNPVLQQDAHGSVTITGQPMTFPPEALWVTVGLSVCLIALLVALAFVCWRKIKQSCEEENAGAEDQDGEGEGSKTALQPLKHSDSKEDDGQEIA
TEST METHOD NOTES: JP5 alanine mutant library in mRNA display: background screen on beads, then selection on biotinylated B7-H3; NGS, enrichment in the selection over the input library
Bridges are numbered along the chain shown (N, C = ends).

- BINDER: "Ac-CWTIRDANGTRC-NH2 (bridge 1-12; also: bracket C1-C12, bond type not given here, Member of the JP5 alanine mutant library; also called JP5 alanine mutant 6) [AM6]"
  SELECTION/INPUT: 1.99
- BINDER: "Ac-CWTIADINGTRC-NH2 (bridge 1-12; also: bracket C1-C12, bond type not given here, Member of the JP5 alanine mutant library; also called JP5 alanine mutant 4) [AM4]"
  SELECTION/INPUT: 0.58
- BINDER: "Ac-CATIRDINGTRC-NH2 (bridge 1-12; also: bracket C1-C12, bond type not given here, Member of the JP5 alanine mutant library; also called JP5 alanine mutant 1) [AM1]"
  SELECTION/INPUT: 0.33
- BINDER: "Ac-CWAIRDINGTRC-NH2 (bridge 1-12; also: bracket C1-C12, bond type not given here, Member of the JP5 alanine mutant library; also called JP5 alanine mutant 2) [AM2]"
  SELECTION/INPUT: 1.4
- BINDER: "Ac-CWTIRDIAGTRC-NH2 (bridge 1-12; also: bracket C1-C12, bond type not given here, Member of the JP5 alanine mutant library; also called JP5 alanine mutant 7) [AM7]"
  SELECTION/INPUT: 1.53
